Values compiled from ChEMBL document CHEMBL1144473.

Target sequence: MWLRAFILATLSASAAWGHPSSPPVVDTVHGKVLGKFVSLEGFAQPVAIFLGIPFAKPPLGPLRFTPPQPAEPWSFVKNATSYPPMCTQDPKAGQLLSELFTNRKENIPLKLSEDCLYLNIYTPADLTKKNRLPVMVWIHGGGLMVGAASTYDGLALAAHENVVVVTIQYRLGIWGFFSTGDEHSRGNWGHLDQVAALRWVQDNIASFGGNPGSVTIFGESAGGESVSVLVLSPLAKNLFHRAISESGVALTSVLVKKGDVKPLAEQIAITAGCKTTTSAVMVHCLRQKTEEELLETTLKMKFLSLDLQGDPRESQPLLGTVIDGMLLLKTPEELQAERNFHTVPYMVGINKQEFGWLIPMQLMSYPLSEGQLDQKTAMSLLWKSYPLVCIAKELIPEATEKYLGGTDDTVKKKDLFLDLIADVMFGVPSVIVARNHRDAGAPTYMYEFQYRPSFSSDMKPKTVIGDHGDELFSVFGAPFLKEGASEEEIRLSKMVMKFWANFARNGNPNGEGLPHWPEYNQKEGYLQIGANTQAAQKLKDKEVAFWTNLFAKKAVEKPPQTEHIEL
pKi: −log10 of the molar value.
Experimental readout: pKi

[[record]]
molecule_smiles = "O=C1Nc2c(C(=O)O)cccc2C1=O"
experimental_readout = "pKi"
value_reported = "< 4.00"

[[record]]
molecule_smiles = "COc1cc(NCN2C(=O)C(=O)c3ccccc32)cc(OC)c1OC"
experimental_readout = "pKi"
value_reported = 4.71

[[record]]
molecule_smiles = "O=C1C(=O)N(CN2CCCCC2)c2ccccc21"
experimental_readout = "pKi"
value_reported = "< 4.00"

[[record]]
molecule_smiles = "Cc1ccc2c(c1)C(=O)C(=O)N2"
experimental_readout = "pKi"
value_reported = "< 4.00"

[[record]]
molecule_smiles = "O=C1Nc2ccc(Br)cc2C1=O"
experimental_readout = "pKi"
value_reported = 4.50


Lab note: next molecule to report on.
Answer with the recorded pKi for the molecule listed here: O=C1Nc2ccc(F)cc2C1=O
< 4.00
